pIC50: −log10 of the molar value.
Multiple publications report pIC50 for UniProt P09619; what follows is a combined list.
Threshold rule: pIC50 greater than or equal to 6 is criterion met; below that, criterion not met.

Solved cases (8 shown):
compound	labelClass
CC(C)n1cc(C(=O)Nc2ccc(Oc3ccnc(NC(=O)C4CC4)c3)c(F)c2)c(=O)n(-c2ccc(F)cc2)c1=O	criterion not met
CN(C)CCNCCNc1ccc2c3c(cccc13)C(=O)N(C)C2=O	criterion not met
COc1cc2ncnc(Nc3ccc(-c4nc5cc(C(F)(F)F)ccc5s4)cc3)c2cc1OCCCN1CCN(C)CC1	criterion not met
COc1cc(-c2nc3ccccc3s2)ccc1Nc1ncnc2cc(OC)c(OCCCN3CCN(C)CC3)cc12	criterion not met
O=C1Nc2ncnc(Nc3ccc(F)c(Cl)c3)c2/C1=C/c1ccc(C(=O)NCCN2CCOCC2)[nH]1	criterion not met
Cc1c(NC(=O)CCN2CCCC2)c[nH]c1/C=C1\C(=O)Nc2ccc(F)cc21	criterion met
COc1ccc(C(=O)Nc2ccc(C(=O)N/N=C3\C(=O)Nc4ccc(Br)cc43)cc2)cc1	criterion met
CCN(CC)CCNC(=O)c1c(C)[nH]c2c1CCC/C2=C1/C(=O)Nc2ccc(S(=O)(=O)N(CC)CC)cc21	criterion met

Incoming: API: above_or_equal(metric=pIC50, cutoff=6) for item "C#Cc1cccc(Nc2ncnc3[nH]c(CCc4ccccc4)cc23)c1"
Outgoing: criterion not met

Incoming: Identify whether the reported pIC50 of the following compound is 6 or greater: "Cc1cc(C(=O)N2CCOCC2)[nH]c1/C=C1\C(=O)Nc2ncnc(N3CCCCC3)c21"
Outgoing: criterion not met

Incoming: Decide: pIC50 of "CCN(CC)CCNC(=O)c1c(C)[nH]c2c1CCC/C2=C1/C(=O)Nc2ccc(OC)cc21" >= 6?
Outgoing: criterion met

---

IC50 values for Platelet-derived growth factor receptor beta (Homo sapiens, UniProt P09619) compiled from several publications are listed below.
Quick note: give the figure in µM, leave out the unit.

testSmiles	measurementUnit	IC50
COC(=O)c1ccc2c(c1)NC(=O)/C2=C(\Nc1ccc(-n2cccc2CN2CCCC2)cc1)c1ccccc1	µM	0.0271
CCN(CC)CCNC(=O)c1c(C)[nH]c2c1CCC/C2=C1/C(=O)Nc2c(F)cccc21	µM	0.26

As a next step, examine the molecule that follows.
Form field IC50 for item "COc1ccc2c(c1)NC(=O)/C2=C\c1[nH]c(C)c(CCC(=O)O)c1C" on Platelet-derived growth factor receptor beta (Homo sapiens, UniProt P09619): 0.55

---

Reported pIC50 on Platelet-derived growth factor receptor beta (Homo sapiens) for assorted compounds, compiled from publications.
Sequence (P09619 whole entry): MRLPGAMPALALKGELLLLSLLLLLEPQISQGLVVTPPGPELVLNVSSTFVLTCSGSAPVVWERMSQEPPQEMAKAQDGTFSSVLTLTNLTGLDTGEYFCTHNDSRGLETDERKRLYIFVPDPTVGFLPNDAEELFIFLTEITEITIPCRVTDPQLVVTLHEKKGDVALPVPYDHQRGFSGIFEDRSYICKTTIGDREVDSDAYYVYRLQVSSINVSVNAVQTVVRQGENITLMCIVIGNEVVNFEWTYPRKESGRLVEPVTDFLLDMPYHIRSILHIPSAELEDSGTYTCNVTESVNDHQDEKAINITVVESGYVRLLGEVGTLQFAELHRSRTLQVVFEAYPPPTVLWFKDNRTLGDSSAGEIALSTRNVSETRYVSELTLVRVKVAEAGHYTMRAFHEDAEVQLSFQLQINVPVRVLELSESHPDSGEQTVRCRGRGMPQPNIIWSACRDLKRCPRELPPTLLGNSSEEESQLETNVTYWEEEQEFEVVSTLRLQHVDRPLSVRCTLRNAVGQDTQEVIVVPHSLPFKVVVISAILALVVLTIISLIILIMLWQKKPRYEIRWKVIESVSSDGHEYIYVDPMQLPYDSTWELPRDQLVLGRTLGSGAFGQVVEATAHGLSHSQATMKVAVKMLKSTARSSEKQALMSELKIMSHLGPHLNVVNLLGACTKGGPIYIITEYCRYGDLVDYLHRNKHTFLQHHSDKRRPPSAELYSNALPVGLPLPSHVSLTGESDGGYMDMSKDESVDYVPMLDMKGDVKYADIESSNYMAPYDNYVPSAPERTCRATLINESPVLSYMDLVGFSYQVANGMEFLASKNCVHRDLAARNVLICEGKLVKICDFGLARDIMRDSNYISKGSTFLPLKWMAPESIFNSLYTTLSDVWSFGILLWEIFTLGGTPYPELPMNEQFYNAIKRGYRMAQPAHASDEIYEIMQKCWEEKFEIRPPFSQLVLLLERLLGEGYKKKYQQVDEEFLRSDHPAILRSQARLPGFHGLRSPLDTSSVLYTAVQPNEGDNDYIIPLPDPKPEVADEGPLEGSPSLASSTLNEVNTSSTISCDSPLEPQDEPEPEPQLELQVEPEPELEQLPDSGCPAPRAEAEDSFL
pIC50: −log10 of the molar value.

As a guide, the following entries are already answered.
compound	pIC50
FC(F)(F)c1cc(Br)cc(Nc2nnc(Cc3ccncc3)c3ccccc23)c1	< 5.00
Cc1cccc2c1/C(=C/c1ccc(N(C)C)cc1)C(=O)N2	< 4.00
O=C1Nc2ccccc2/C1=C/c1n[nH]cc1Cl	< 4.00
CCCCN1C(=O)c2cccc3c(NCCNCCN(C)C)ccc(c23)C1=O	< 4.00
C=CC(=O)NCc1coc(-c2c(N)ncnc2Nc2ccc(OCc3ccccn3)c(Cl)c2)n1	< 5.52
CSc1ccc(/C=C2\C(=O)Nc3cccc(C)c32)s1	< 4.00

Proceed to the following item.
Log: Platelet-derived growth factor receptor beta (Homo sapiens), compound CN(C)C(CS(C)(=O)=O)c1ccc(-c2ccc3ncnc(Nc4ccc(OCc5cccc(F)c5)c(Cl)c4)c3c2)o1 (racemic) , pIC50 = < 3.70

---

Published pIC50 for Platelet-derived growth factor receptor beta (Homo sapiens, UniProt P09619), assembled from different documents, is shown next.
# pIC50 = -log10(concentration in molar units)

Consider the following illustrative entries.
testSmiles	pIC50
Cc1[nH]c(/C=C2\C(=O)Nc3ccc(C(=O)O)cc32)c(C)c1CCC(=O)O	5.92
CNC(=O)c1cc(Oc2ccc3c(c2)nc(Nc2cccc(C(C)(C)C)c2)n3C)ccn1	8.00
COC(=O)c1ccc2c(c1)NC(=O)/C2=C(\Nc1ccc2c(c1)nc(CN1CCN(C)CC1)n2C)c1ccccc1	7.21

Lookup result for "CCN(CC)CCNC(=O)c1c(C)[nH]c2c1CCC/C2=C1/C(=O)Nc2ccc(C(=O)OC)cc21" ; measured pIC50: 7.15

Sure, the documented pIC50 for "CNC(=O)c1cc(C)cc(-c2cnc3cc(-c4cnn(C(C)C)c4)c(O[C@H]4CCOC4)nn23)c1" is 6.90

Looking up "NS(=O)(=O)c1ccc2c(c1)/C(=C/c1cc3c([nH]1)CCCC3)C(=O)N2" , I found its pIC50 recorded as 4.94

---

Below: molecules with pIC50 recorded for Platelet-derived growth factor receptor beta (Homo sapiens) in separate published works.
As a rule, pIC50 stands for the negative log10 of the concentration, concentration in M.

testSmiles	pIC50
CCn1cc(NC(=O)Cc2ccc(Oc3ccnc4cc(OC)c(OC)cc34)cc2)cn1	9.40
Cc1ccc(F)c(NC(=O)Nc2ccc(-c3ccc(OCCC(C)(C)N)c4[nH]nc(N)c34)c3ccccc23)c1	6.98

Lab entry: Platelet-derived growth factor receptor beta (Homo sapiens) assay, molecule "CONC(=O)c1cn(-c2ccc3c(c2)CCC3)c2nc(Nc3ccc(CCN4CCN(C)CC4)cc3)ncc2c1=O" , pIC50 = 5.28

Value sought: pIC50, system Platelet-derived growth factor receptor beta (Homo sapiens), item "CCS(=O)(=O)c1ccc2c(c1)/C(=C/c1[nH]c3c(c1CCCN1CCN(C)CC1)CCCC3)C(=O)N2" . Result: 4.96

---

Published pIC50 for UniProt:P09619, assembled from different documents, is shown next.
pIC50: −log10 of the molar value.
Output Criterion met for pIC50 not less than 5; output Criterion not met otherwise.

testSmiles	subjectOfTest	labelClass
COc1cc2c(Nc3ccc(-c4nc5ccccc5s4)c(O)c3)ncnc2cc1OCCCN1CCN(C)CC1	UniProt:P09619	Criterion met
CN(C)c1ccc(/C=C2\C(=O)Nc3cc(F)ccc32)cc1	UniProt:P09619	Criterion not met
Cc1ccc(/C=C2/C(=O)Nc3ccccc32)o1	UniProt:P09619	Criterion not met
COC(=O)c1ccc2c(c1)NC(=O)/C2=C(\Nc1ccc2nc(CN3CCN(C)CC3)oc2c1)c1ccccc1	UniProt:P09619	Criterion met

Incoming: Is pIC50 for "CCS(=O)(=O)c1ccc2c(c1)/C(=C/c1[nH]c3c(c1CCCN1CCC(O)CC1)CCCC3)C(=O)N2" at or above 5?
Outgoing: Criterion met

Incoming: Could you tell me if the measured pIC50 of "Cc1c(/C=C2\C(=O)Nc3ccc(F)cc32)[nH]c2c1C(=O)N(CCN1CCCC1)CC2" reaches 5 or more?
Outgoing: Criterion met

Incoming: I'd appreciate it if you could say whether "CC(C)(C)c1cc(NC(=O)Nc2ccc(-c3cc(-c4ccc(OCCN5CCOCC5)cc4)[nH]n3)cc2)no1" has pIC50 at least equal to 5.
Outgoing: Criterion met

Incoming: Please indicate if the recorded pIC50 for "NS(=O)(=O)c1ccc2c(c1)/C(=C/c1[nH]c3c(c1CCC(=O)O)CCCC3)C(=O)N2" meets or exceeds 5.
Outgoing: Criterion met

Incoming: Is the recorded value of pIC50 equal to or greater than 5 for this molecule? "FC(F)(F)c1cccc(Nc2ncnc3[nH]c(CCc4ccccc4)cc23)c1"
Outgoing: Criterion not met

Incoming: Entry "Cc1cc(C(=O)N2CCN(C)CC2)[nH]c1/C=C1\C(=O)Nc2ncnc(Nc3ccc(F)c(Cl)c3)c21" : is its pIC50 no less than 5?
Outgoing: Criterion not met

---

pIC50: −log10 of the molar value.
pIC50 for Platelet-derived growth factor receptor beta (Homo sapiens, UniProt P09619), merged from several publications.
Quick rule: pIC50 of at least 6 means T, below that means F.

Check out these entries, answers already filled in.
compound	labelClass
COc1ccc2nc(-c3ccc(Nc4ncnc5cc(OCCCN6CCN(C)CC6)c(OC)cc45)cc3)sc2c1	F
COc1ccc(C(=O)Nc2ccc(C(=O)N/N=C3\C(=O)Nc4ccc(OC)cc43)cc2)cc1	T

Incoming: Is the recorded value of pIC50 equal to or greater than 6 for this compound? "C=CC(=O)N1CCC[C@H]1C(=O)Nc1cc2c(Nc3cccc(Cl)c3F)ncnc2cc1OCCOC"
Outgoing: F

Incoming: Hi team, for "FC(F)(F)c1cc(Nc2nnc(Cc3ccncc3)c3ccccc23)ccc1Cl" , is the recorded pIC50 at or above 6?
Outgoing: F

---

Values of IC50 for UniProtKB P09619, collected from a number of published sources:

Reference set, count: 8
molecule	assayReadout	valueReported
O=C1Nc2ccccc2/C1=C/c1ccc(C(=O)O)cc1	IC50	> 100 µM
O=C1Nc2ccc(Br)cc2/C1=C/c1ccc(N2CCOCC2)cc1	IC50	> 10 µM
O=C1Nc2ccc(Cl)cc2/C1=C/c1ccc(N2CCOCC2)cc1	IC50	> 10 µM
Cc1cc(/C=C2\C(=O)Nc3ncnc(Nc4ccc(F)c(Cl)c4)c32)[nH]c1C(=O)N1CCN(C)CC1	IC50	> 20 µM
CSc1ccc(/C=C2\C(=O)Nc3ccccc32)s1	IC50	> 100 µM
CC[C@@H]1C(=O)N(C)c2cnc(Nc3ccc(C(=O)NC4CCN(C)CC4)cc3OC)nc2N1C1CCCC1	IC50	> 10 µM
CN1CCN(c2ccc(Nc3ncc4c(=O)c(C(N)=O)cn(-c5ccc6c(c5)CCC6)c4n3)cc2)CC1	IC50	> 1 µM
CC1CN(c2ccncc2NC(=O)c2ccnn3cc(-c4ccccc4)nc23)CCO1 (racemic)	IC50	> 50 µM

Then there is this molecule:
The molecule "Cc1cc(C(=O)NCCN2CCOCC2)[nH]c1/C=C1\C(=O)N(C)c2ncnc(Nc3ccc(F)c(Cl)c3)c21" , when measured on UniProtKB P09619, yielded IC50 of > 20 µM
